# MEASURED ON: T1, HLA-B08:01 (human)
# T1 construct: Stability assay: E. coli-expressed biotinylated heavy chain with 125I-labelled b2m; MS: BAP-tagged HLA in HEK293T cells; Treated as one molecule
# MEASUREMENT NOTES: pMHC-I dissociation, 125I-b2m, 37C; experiment 2
VALUE KIND: half-life (h)

Look over these answered cases.
[[record]]
binder = "MFATLQRSSL"
observed = 0

[[record]]
binder = "ESKIMFATL"
observed = 1.6

[[record]]
binder = "LHFCRSSIM"
observed = 0

[[record]]
binder = "FLKAESKIM"
observed = 1.5

[[record]]
binder = "FLKAESKIMF"
observed = 0


[I] FATLQRSSL
[II] IMKPKRDGYM
Select one: I or II . Criterion: greater recorded half-life. Write down the label attached to your selection. II
